Entry source: patent US20240239738A1

# experiment_summary: in vivo PK profiles
# cond: in vivo, po, 30 mg/kg

| compound | reading_unit | AUC(0-inf) |
| --- | --- | --- |
| N[C@H]1C=C(C(=O)O)CCC1=C(F)F [Compound 14] | ng·h/mL | 4330 |

---

# system_tested: hOAT (Homo sapiens)
# Construct: made in house
# Sequence (P04181 with tags, fused parts or gaps): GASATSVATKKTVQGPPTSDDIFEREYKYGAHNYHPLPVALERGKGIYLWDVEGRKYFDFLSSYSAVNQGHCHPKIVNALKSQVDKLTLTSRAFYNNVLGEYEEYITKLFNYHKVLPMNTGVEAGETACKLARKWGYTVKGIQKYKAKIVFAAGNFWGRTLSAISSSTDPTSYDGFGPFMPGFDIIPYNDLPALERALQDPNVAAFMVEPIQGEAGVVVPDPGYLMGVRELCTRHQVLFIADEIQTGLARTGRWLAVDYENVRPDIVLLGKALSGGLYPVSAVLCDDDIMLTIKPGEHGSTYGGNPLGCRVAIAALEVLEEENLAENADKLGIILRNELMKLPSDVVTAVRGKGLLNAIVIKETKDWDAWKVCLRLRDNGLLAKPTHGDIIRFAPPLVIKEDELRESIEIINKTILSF
# experiment_summary: Coupled enzyme assay, time-dependent inactivation of hOAT
# Type: biochemical
# cond: hOAT
This section presents compounds with their documented kinact/KI values.

| compound_structure | kinact/KI |
| --- | --- |
| N[C@H]1C=C(C(=O)O)CCC1=C(F)F | 270 M⁻¹ s⁻¹ |
| N[C@H]1C[C@@H](C(=O)O)CCC1=C(F)F | 1.52 M⁻¹ s⁻¹ |
| N[C@H]1C[C@H](C(=O)O)CCC1=C(F)F | 1.07 M⁻¹ s⁻¹ |
| N[C@H]1CC(C(=O)O)=CCC1=C(F)F | 9.17 M⁻¹ s⁻¹ |

---

# experiment_summary: in vivo PK profiles
# cond: in vivo, po, 30 mg/kg; read-out: C0/Cmax
measurement_label: Cmax (ng/mL)

| molecule | measurement_label | reading_unit | endpoint_value |
| --- | --- | --- | --- |
| N[C@H]1C=C(C(=O)O)CCC1=C(F)F [Compound 14] | Cmax | ng/mL | 3430 |

---

# experiment_summary: in vivo PK profiles
# cond: in vivo, po, 30 mg/kg

| compound_structure | AUC(0-t), ng·h/mL |
| --- | --- |
| N[C@H]1C=C(C(=O)O)CCC1=C(F)F | 4260 |

---

# experiment_summary: in vivo PK profiles
# cond: in vivo; IV, 10 mg/kg; 0.25 h; read-out: B/P ratio @0.25 h
measurement_label: Kp at 0.25 h

| compound_structure | measurement_label | endpoint_value |
| --- | --- | --- |
| N[C@H]1C=C(C(=O)O)CCC1=C(F)F | Kp at 0.25 h | 0.05 |

---

# experiment_summary: in vivo PK profiles
# cond: in vivo, iv, 10 mg/kg

| compound | reading_unit | half-life |
| --- | --- | --- |
| N[C@H]1C=C(C(=O)O)CCC1=C(F)F [Compound 14] | min | 9.6 |

---

# experiment_summary: in vivo PK profiles
# cond: in vivo, po, 30 mg/kg; read-out: Tmax

| molecule | Tmax |
| --- | --- |
| N[C@H]1C=C(C(=O)O)CCC1=C(F)F [Compound 14] | 15 min |

---

This section presents molecules with their documented pKi values.
# system_tested: hOAT (Homo sapiens)
# Construct: made in house
# experiment_summary: Coupled enzyme assay, time-dependent inactivation of hOAT
# Format: biochemical
# cond: hOAT
pKi: −log10 of the molar value.
measurement_label: pKi

| compound_structure | endpoint_value |
| --- | --- |
| N[C@H]1C[C@H](C(=O)O)CCC1=C(F)F | 2.83 |
| N[C@H]1CC(C(=O)O)=CCC1=C(F)F | 4.01 |
| N[C@H]1C=C(C(=O)O)CCC1=C(F)F | 4.92 |
| N[C@H]1C[C@@H](C(=O)O)CCC1=C(F)F | 2.90 |

---

# experiment_summary: in vivo PK profiles
# cond: in vivo, iv, 10 mg/kg; read-out: C0/Cmax

| compound_structure | Cmax (ng/mL) |
| --- | --- |
| N[C@H]1C=C(C(=O)O)CCC1=C(F)F | 14800 |

---

# experiment_summary: in vivo PK profiles
# cond: in vivo; PO, 30 mg/kg; 0.25 h; read-out: B/P ratio @0.25 h
measurement_label: Kp at 0.25 h

| compound_structure | endpoint_value |
| --- | --- |
| N[C@H]1C=C(C(=O)O)CCC1=C(F)F | 0.01 |

---

# system_tested: GABA-AT (Sus scrofa)
# Construct: GABA-AT was isolated from pig brains and purified according to a literature procedure
# experiment_summary: Coupled enzyme assay, time-dependent inactivation of GABA-AT
measurement_label: Ki

| compound_structure | endpoint_value |
| --- | --- |
| N[C@H]1C[C@@H](C(=O)O)CCC1=C(F)F | 1.31 mM |
| N[C@H]1C[C@H](C(=O)O)CCC1=C(F)F | > 13.1 mM |
| N[C@H]1C=C(C(=O)O)CCC1=C(F)F | > 1.24 mM |
| N[C@H]1CC(C(=O)O)=CCC1=C(F)F | > 2.49 mM |

---

# experiment_summary: in vivo PK profiles
# cond: in vivo, iv, 10 mg/kg

| compound_structure | clearance / mL/min/kg |
| --- | --- |
| N[C@H]1C=C(C(=O)O)CCC1=C(F)F | 66.9 |

---

This section presents compounds with their documented kinact values.
# system_tested: GABA-AT (Sus scrofa, UniProt P80147)
# Construct: GABA-AT was isolated from pig brains and purified according to a literature procedure; from tissue; host or cells: pig brain
# Sequence (P80147 29-500): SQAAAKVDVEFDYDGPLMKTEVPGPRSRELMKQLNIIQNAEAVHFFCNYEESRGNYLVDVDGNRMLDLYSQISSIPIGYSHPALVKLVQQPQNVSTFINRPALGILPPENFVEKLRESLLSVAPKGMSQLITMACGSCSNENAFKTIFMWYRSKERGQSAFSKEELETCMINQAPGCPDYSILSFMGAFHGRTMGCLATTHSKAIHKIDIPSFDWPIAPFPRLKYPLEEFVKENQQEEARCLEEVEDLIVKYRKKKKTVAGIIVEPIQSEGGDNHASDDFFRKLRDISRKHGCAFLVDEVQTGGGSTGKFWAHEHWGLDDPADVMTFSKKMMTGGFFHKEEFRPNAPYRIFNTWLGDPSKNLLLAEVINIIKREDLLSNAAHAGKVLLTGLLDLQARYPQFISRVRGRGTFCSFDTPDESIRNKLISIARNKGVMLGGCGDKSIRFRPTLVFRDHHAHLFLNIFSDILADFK
# experiment_summary: Coupled enzyme assay, time-dependent inactivation of GABA-AT
# Type: biochemical, pig

| compound | kinact |
| --- | --- |
| N[C@H]1C[C@@H](C(=O)O)CCC1=C(F)F [Compound 12] | 0.000417 s⁻¹ |
| N[C@H]1C[C@H](C(=O)O)CCC1=C(F)F [Compound 13] | > 0.00317 s⁻¹ |
| N[C@H]1CC(C(=O)O)=CCC1=C(F)F [Compound 15] | > 0.00367 s⁻¹ |
| N[C@H]1C=C(C(=O)O)CCC1=C(F)F [Compound 14] | > 0.006 s⁻¹ |

---

# experiment_summary: in vivo PK profiles
# cond: in vivo, iv, 10 mg/kg

| compound_structure | AUC(0-t) |
| --- | --- |
| N[C@H]1C=C(C(=O)O)CCC1=C(F)F | 2470 ng·h/mL |
